Values were extracted from ChEMBL document CHEMBL3102840.

# Test system: SK-MEL-5
# assay.info: Cytotoxicity against human SK-MEL-5 cells after 48 hrs by SRB assay
# Format: functional
# conditions.used: SK-MEL-5, 48 h
test.readout: LC50

Problem: Report measured LC50; entry is CN1C(=O)C(=Cc2cn(Cc3ccc(Cl)cc3)c3ccccc23)C(=O)N(C)C1=O
Solution: > 100 µM

Problem: Report measured LC50; entry is COc1ccc(Cn2cc(C=C3C(=O)N(C)C(=O)N(C)C3=O)c3ccccc32)cc1
Solution: 64.4 µM

---
Problem: Report measured LC50; entry is CN1C(=O)C(=Cc2cn(Cc3ccc(F)cc3)c3ccccc23)C(=O)N(C)C1=O
Solution: > 100 µM

Problem: Report measured LC50; entry is Cc1ccc(Cn2cc(C=C3C(=O)N(C)C(=O)N(C)C3=O)c3ccccc32)cc1
Solution: > 100 µM

* * *

# System: A498
# assay.info: Cytotoxicity against human A498 cells after 48 hrs by SRB assay
# Type: functional
# conditions.used: A498, 48 h
test.readout: GI50 (nM)
Give the quantity in nM, number only.

Problem: Report measured GI50; entry is CN1C(=O)C(=Cc2cn(Cc3ccc(Cl)cc3)c3ccccc23)C(=O)N(C)C1=O
Solution: 40

Problem: Report measured GI50; entry is CN1C(=O)C(=Cc2cn(Cc3ccc(F)cc3)c3ccccc23)C(=O)N(C)C1=O
Solution: 70

Problem: Report measured GI50; entry is COc1ccc(Cn2cc(C=C3C(=O)N(C)C(=O)N(C)C3=O)c3ccccc32)cc1
Solution: 60

In the following, a different compound is considered.
Problem: Report measured GI50; entry is Cc1ccc(Cn2cc(C=C3C(=O)N(C)C(=O)N(C)C3=O)c3ccccc32)cc1
Solution: 120

* * *

# assay.info: Cytotoxicity against human OVCAR5 cells after 48 hrs by SRB assay
# Assay type: functional
# conditions.used: OVCAR-5, 48 h
// reported GI50 per item
Give the quantity in nM, number only.

Solved cases (3 shown):
Problem: Report measured GI50; entry is CN1C(=O)C(=Cc2cn(Cc3ccc(Cl)cc3)c3ccccc23)C(=O)N(C)C1=O
Solution: 160

Problem: Report measured GI50; entry is Cc1ccc(Cn2cc(C=C3C(=O)N(C)C(=O)N(C)C3=O)c3ccccc32)cc1
Solution: 70

Problem: Report measured GI50; entry is CN1C(=O)C(=Cc2cn(Cc3ccc(F)cc3)c3ccccc23)C(=O)N(C)C1=O
Solution: 110

---
Problem: Report measured GI50; entry is COc1ccc(Cn2cc(C=C3C(=O)N(C)C(=O)N(C)C3=O)c3ccccc32)cc1
Solution: 20

* * *

// reported GI50 per item
# Tested on: NCI-H23
# assay.info: Cytotoxicity against human NCI-H23 cells after 48 hrs by SRB assay
# Format: functional
# conditions.used: NCI-H23, 48 h
Give the quantity in µM, number only.

Solved cases (3 shown):
Problem: Report measured GI50; entry is CN1C(=O)C(=Cc2cn(Cc3ccc(F)cc3)c3ccccc23)C(=O)N(C)C1=O
Solution: 51.5

Problem: Report measured GI50; entry is Cc1ccc(Cn2cc(C=C3C(=O)N(C)C(=O)N(C)C3=O)c3ccccc32)cc1
Solution: 8.19

Problem: Report measured GI50; entry is CN1C(=O)C(=Cc2cn(Cc3ccc(Cl)cc3)c3ccccc23)C(=O)N(C)C1=O
Solution: 10.2

In the following, a different compound is considered.
Problem: Report measured GI50; entry is COc1ccc(Cn2cc(C=C3C(=O)N(C)C(=O)N(C)C3=O)c3ccccc32)cc1
Solution: 4.67

* * *

# Tested on: NCI-H460
# assay.info: Cytotoxicity against human NCI-H460 cells after 48 hrs by SRB assay
# Format: functional
# conditions.used: NCI-H460, 48 h, read-out: LC50 (the source's name)
test.readout: CC50

Solved cases (3 shown):
Problem: Look up and report CC50, with NCI-H460 as system, for CN1C(=O)C(=Cc2cn(Cc3ccc(Cl)cc3)c3ccccc23)C(=O)N(C)C1=O
Solution: > 100 µM

Problem: Look up and report CC50, with NCI-H460 as system, for COc1ccc(Cn2cc(C=C3C(=O)N(C)C(=O)N(C)C3=O)c3ccccc32)cc1
Solution: 82.8 µM

Problem: Look up and report CC50, with NCI-H460 as system, for Cc1ccc(Cn2cc(C=C3C(=O)N(C)C(=O)N(C)C3=O)c3ccccc32)cc1
Solution: > 100 µM

In the following, a different compound is considered.
Problem: Look up and report CC50, with NCI-H460 as system, for CN1C(=O)C(=Cc2cn(Cc3ccc(F)cc3)c3ccccc23)C(=O)N(C)C1=O
Solution: > 100 µM

* * *

# Test system: T47D
# assay.info: Cytotoxicity against human T47D cells after 48 hrs by SRB assay
# Type: functional
// reported GI50 per item
Give the quantity in µM, number only.

Solved cases (3 shown):
Problem: Report measured GI50; entry is CN1C(=O)C(=Cc2cn(Cc3ccc(Cl)cc3)c3ccccc23)C(=O)N(C)C1=O
Solution: 3.53

Problem: Report measured GI50; entry is Cc1ccc(Cn2cc(C=C3C(=O)N(C)C(=O)N(C)C3=O)c3ccccc32)cc1
Solution: 5

Problem: Report measured GI50; entry is COc1ccc(Cn2cc(C=C3C(=O)N(C)C(=O)N(C)C3=O)c3ccccc32)cc1
Solution: 3.53

In the following, a different compound is considered.
Problem: Report measured GI50; entry is CN1C(=O)C(=Cc2cn(Cc3ccc(F)cc3)c3ccccc23)C(=O)N(C)C1=O
Solution: 5.38

* * *

# Test system: SNB-19
# assay.info: Cytotoxicity against human SNB19 cells after 48 hrs by SRB assay
# Assay type: functional
# conditions.used: SNB-19, 48 h
test.readout: GI50 (µM)
Give the quantity in µM, number only.

Problem: Report measured GI50; entry is CN1C(=O)C(=Cc2cn(Cc3ccc(F)cc3)c3ccccc23)C(=O)N(C)C1=O
Solution: 26.7

Problem: Report measured GI50; entry is Cc1ccc(Cn2cc(C=C3C(=O)N(C)C(=O)N(C)C3=O)c3ccccc32)cc1
Solution: 26.8

Problem: Report measured GI50; entry is CN1C(=O)C(=Cc2cn(Cc3ccc(Cl)cc3)c3ccccc23)C(=O)N(C)C1=O
Solution: 18.3

In the following, a different compound is considered.
Problem: Report measured GI50; entry is COc1ccc(Cn2cc(C=C3C(=O)N(C)C(=O)N(C)C3=O)c3ccccc32)cc1
Solution: 15.8

* * *

# Tested on: MDA-MB-468
# assay.info: Cytotoxicity against human MDA-MB-468 cells assessed as growth inhibition at 10 uM after 48 hrs by SRB assay
# Type: functional
# conditions.used: MDA-MB-468, 48 h, read-out: GI
Please mark 1 if the recorded inhibition of growth at 10 µM is equal to or greater than -60%, and 0 if it falls below.

Problem: Say whether COC(=O)c1ccc2c(c1)c(C=C1C(=O)N(C)C(=O)N(C)C1=O)cn2Cc1ccc(S(=O)(=O)c2ccccc2)cc1 shows inhibition of growth at 10 µM of -60% or more.
Solution: 1

---
Problem: Say whether CN1C(=O)C(=Cc2cn(Cc3ccc(Cl)cc3)c3ccccc23)C(=O)N(C)C1=O shows inhibition of growth at 10 µM of -60% or more.
Solution: 0

Problem: Say whether Cc1ccc(Cn2cc(C=C3C(=O)N(C)C(=O)N(C)C3=O)c3ccccc32)cc1 shows inhibition of growth at 10 µM of -60% or more.
Solution: 0

Problem: Say whether CN1C(=O)C(=Cc2cn(Cc3ccccc3Br)c3ccccc23)C(=O)N(C)C1=O shows inhibition of growth at 10 µM of -60% or more.
Solution: 1

Problem: Say whether COC(=O)c1ccc(Cn2cc(C=C3C(=O)N(C)C(=O)N(C)C3=O)c3cc(C(=O)OC)ccc32)cc1 shows inhibition of growth at 10 µM of -60% or more.
Solution: 1

Problem: Say whether CN1C(=O)C(=Cc2cn(Cc3ccc(C#N)cc3)c3ccccc23)C(=O)N(C)C1=O shows inhibition of growth at 10 µM of -60% or more.
Solution: 0

Problem: Say whether CN1C(=O)C(=Cc2cn(Cc3ccc(F)cc3)c3ccc(Cl)cc23)C(=O)N(C)C1=O shows inhibition of growth at 10 µM of -60% or more.
Solution: 0

Problem: Say whether COc1ccc(Cn2cc(C=C3C(=O)N(C)C(=O)N(C)C3=O)c3ccccc32)cc1 shows inhibition of growth at 10 µM of -60% or more.
Solution: 0

Problem: Say whether CN1C(=O)C(=Cc2cn(Cc3ccc(F)cc3)c3ccccc23)C(=O)N(C)C1=O shows inhibition of growth at 10 µM of -60% or more.
Solution: 0

* * *

# System: OVCAR-8
# assay.info: Cytotoxicity against human OVCAR8 cells after 48 hrs by SRB assay
# Type: functional
# conditions.used: OVCAR-8, 48 h, read-out: LC50 (the source's name)
test.readout: CC50

Solved cases (2 shown):
Problem: Report measured CC50; entry is COc1ccc(Cn2cc(C=C3C(=O)N(C)C(=O)N(C)C3=O)c3ccccc32)cc1
Solution: 88.6 µM

Problem: Report measured CC50; entry is Cc1ccc(Cn2cc(C=C3C(=O)N(C)C(=O)N(C)C3=O)c3ccccc32)cc1
Solution: > 100 µM

---
Problem: Report measured CC50; entry is CN1C(=O)C(=Cc2cn(Cc3ccc(Cl)cc3)c3ccccc23)C(=O)N(C)C1=O
Solution: > 100 µM

Problem: Report measured CC50; entry is CN1C(=O)C(=Cc2cn(Cc3ccc(F)cc3)c3ccccc23)C(=O)N(C)C1=O
Solution: > 100 µM
